Measurement Description: Maximum Concentration of the compound.
Assay type: ADME, organism-based
Stated Conditions: in vivo
Result Type: Cmax (ng/mL)

{"Smiles Text": "CC1(C)[C@H](C(=O)OCOC(=O)CCCCC(=O)O)N2C(=O)C[C@H]2S1(=O)=O", "Readout Number": 5200}
{"Smiles Text": "CC1(C)[C@H](C(=O)O)N2C(=O)C[C@H]2S1(=O)=O", "Readout Number": 700}
{"Smiles Text": "CC(C)(C(=O)O)C(=O)OCOC(=O)[C@@H]1N2C(=O)C[C@H]2S(=O)(=O)C1(C)C", "Readout Number": 3900}

====

Measurement Description: Area under curve (AUC) was determined
Type: ADME
Design: concentration or dose not given beside the values

{"Smiles Text": "CC1(C)[C@H](C(=O)OCOC(=O)CCCCC(=O)O)N2C(=O)C[C@H]2S1(=O)=O", "AUC [ng·h/mL]": 7500}
{"Smiles Text": "CC1(C)[C@H](C(=O)OCOC(=O)CCCCC(=O)OCc2ccccc2)N2C(=O)C[C@H]2S1(=O)=O", "AUC [ng·h/mL]": 2300}
{"Smiles Text": "CC(C)(C)C(=O)OCOC(=O)[C@@H]1N2C(=O)C[C@H]2S(=O)(=O)C1(C)C", "AUC [ng·h/mL]": 8500}
{"Smiles Text": "CC1(C)[C@H](C(=O)OCOC(=O)CCCC(=O)O)N2C(=O)C[C@H]2S1(=O)=O", "AUC [ng·h/mL]": 10000}
{"Smiles Text": "CC1(C)[C@H](C(=O)OCOC(=O)CC(=O)O)N2C(=O)C[C@H]2S1(=O)=O", "AUC [ng·h/mL]": 3500}
{"Smiles Text": "CC(C)(C(=O)O)C(=O)OCOC(=O)[C@@H]1N2C(=O)C[C@H]2S(=O)(=O)C1(C)C", "AUC [ng·h/mL]": 6200}
{"Smiles Text": "CC1(C)[C@H](C(=O)O)N2C(=O)C[C@H]2S1(=O)=O", "AUC [ng·h/mL]": 1400}
